All figures here come from PubChem BioAssay (Tox21).

- Method: A CellTox Green Cytotoxicity Assay to monitor cytotoxicity in HepG2 cells - 24 hour (AID 1224878); also: nearly all actives have a fitted effect of over 45% in size
- Test Settings: CellTox Green fluorescence; series mostly up to 76.8 µM
Records with an inconclusive call do not appear. The source made the active and inactive calls. Calls follow the shape of the dose curve; as a rule, active = well fitted activation curve with a large enough effect in the repeat runs; inconclusive = weak or mixed curves; inactive = flat fitted curve, though single readings scatter.
Outcome codes: active, inactive

# Compound, Category Label
records = [
    ("CC(C)(O)c1cnn2c(-c3ccc(F)c(-c4c(F)cccc4C#N)c3)cnc2n1", "inactive"),
    ("[Hg+2].[I-].[I-]", "active"),
    ("N#CNC#N", "inactive"),
    ("Oc1cc(Cl)c(Cl)c(Cl)c1", "inactive"),
    ("CN(C)S(=O)(=O)N(SC(F)(Cl)Cl)c1ccccc1", "active"),
    ("Oc1c(Cl)c(Cl)cc(Cl)c1Cl", "inactive"),
    ("CC(Cl)CN(C)C (configuration not stated)", "inactive"),
    ("CCCCCCCCCCBr", "inactive"),
    ("CC(=O)c1ccc(-c2ccccc2)cc1", "inactive"),
    ("C=CC(=O)OCC(COC(=O)C=C)(COC(=O)C=C)COC(=O)C=C", "active"),
    ("CCN", "inactive"),
    ("ClC1=C(Cl)[C@]2(Cl)[C@@H]3[C@@H](Cl)[C@@H](Cl)C[C@@H]3[C@@]1(Cl)C2(Cl)Cl", "inactive"),
    ("Nc1ccc(Cl)cc1C(=O)c1ccccc1", "inactive"),
    ("C[C@]12CC[C@H](O)C[C@H]1CC[C@@H]1[C@@H]2C[C@@H](O)[C@]2(C)[C@@H](C3=CC(=O)OC3)CC[C@]12O", "inactive"),
    ("Cc1ccc(OP(=O)(Oc2ccccc2)Oc2ccccc2)cc1", "inactive"),
    ("CCCCCCCCCCCCCCCCCCn1cc[n+](C)c1", "active"),
    ("CC(C)OC(=O)C(O)(c1ccc(Cl)cc1)c1ccc(Cl)cc1", "active"),
    ("CN(C)C(=S)[S-].CN(C)C(=S)[S-].[Cu+2]", "active"),
    ("Cc1cc(C(F)(C(F)(F)F)C(F)(F)F)ccc1NC(=O)c1cccc(I)c1C(=O)NC(C)(C)CS(C)(=O)=O", "inactive"),
    ("Clc1ccc(Oc2ccccc2)cc1", "inactive"),
    ("O=C(Cl)c1ccc(Cl)cc1", "inactive"),
    ("CC(C)Oc1cccc(NC(=O)c2ccccc2C(F)(F)F)c1", "active"),
    ("CC(C)(COCC1CO1)COCC1CO1 (configuration not stated)", "inactive"),
    ("C[As+](C)(C)CC(=O)[O-]", "inactive"),
    ("CC(C)CCCCCCCOP(=O)(Oc1ccccc1)Oc1ccccc1", "inactive"),
    ("CC(=O)[O-].CC(=O)[O-].O.O.[Cd+2]", "active"),
    ("[Cl][Sb]([Cl])[Cl]", "inactive"),
]
